System: THP-1 ASC-GFP cells
Assay: THP-1 ASC-GFP speck assay (NLRP3 inflammasome activation, nigericin)
Format: cell-based
Settings: THP1-ASC-GFP; PMA-differentiated, LPS primed, 10 μM nigericin
pIC50: −log10 of the molar value.
ENDPOINT: pIC50

| MOLECULE | ENDPOINT | ASSAY_RESULT |
| --- | --- | --- |
| CN[C@@H]1COc2c(S(=O)(=O)NC(=O)Nc3c(C(C)C)nn(CC(F)(F)F)c3C(C)C)cnn2C1 [Example 72a] | pIC50 | 5.60 |

P: CCn1nc(C(C)C)c(NC(=O)NS(=O)(=O)c2cnn3c2OC[C@@H](NC)C3)c1C(C)C [Example 66a]
Q: CC(C)c1nn(C(F)(F)F)c(C(C)C)c1NC(=O)NS(=O)(=O)c1cnn2c1OCCC2 [Example 67]
R: CN[C@@H]1COc2c(S(=O)(=O)NC(=O)Nc3c(C(C)C)nn(C)c3C(C)C)cnn2C1 [Example 73a]
S: CC(C)c1nn(CC(F)F)c(C(C)C)c1NC(=O)NS(=O)(=O)c1cnn2c1OCCC2 [Example 63]
T: CO[C@@H]1COc2c(S(=O)(=O)NC(=O)Nc3c(C(C)C)nn(C(F)(F)F)c3C(C)C)cnn2C1 [Example 78a]
Query: Order the records so the highest pIC50 appears first and the lowest last. The reply should contain the labels ordered as requested.
Reply: T, Q, S, P, R
